- tested-system: Dopamine beta hydroxylase (Homo sapiens)
- Construct: 125 μl of plasma; tissue Instituto Português do Sangue Transplantação; host or cells: human plasma from healthy donors
- Sequence (P09172 40-617 limits assumed): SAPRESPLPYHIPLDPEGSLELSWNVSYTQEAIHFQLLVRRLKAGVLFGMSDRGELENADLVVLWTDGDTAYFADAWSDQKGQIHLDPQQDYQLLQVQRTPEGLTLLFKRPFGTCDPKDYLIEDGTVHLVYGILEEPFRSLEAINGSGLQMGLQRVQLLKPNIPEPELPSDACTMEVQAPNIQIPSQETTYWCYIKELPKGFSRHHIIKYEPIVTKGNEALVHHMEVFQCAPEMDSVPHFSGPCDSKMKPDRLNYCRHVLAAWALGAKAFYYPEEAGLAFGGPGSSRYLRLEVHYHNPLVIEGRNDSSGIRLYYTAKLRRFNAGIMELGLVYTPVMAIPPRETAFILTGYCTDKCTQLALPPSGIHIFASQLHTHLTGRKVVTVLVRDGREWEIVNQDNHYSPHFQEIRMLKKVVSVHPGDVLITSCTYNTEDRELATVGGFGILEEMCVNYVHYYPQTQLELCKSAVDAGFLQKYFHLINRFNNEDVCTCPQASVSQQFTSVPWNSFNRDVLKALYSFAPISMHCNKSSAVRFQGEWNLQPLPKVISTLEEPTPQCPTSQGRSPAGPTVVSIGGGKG
- test-protocol: Dopamine beta hydroxylase activity in human plasma
- Type: biochemical
- condition-info: inhibitor 0.1 μM
quantity-name: Plasma (0.1 μM), activity in % of control

# count of solved cases: 3
>>> measured_value("Cn1c(CCC(N)=O)c2n(c1=S)C[C@@H](c1c(F)cccc1F)C2 [Example 263]")
"87.1 % of control"
>>> measured_value("COCCNC(=O)Cc1[nH]c(=S)n2c1C[C@@H](c1c(F)ccc(Br)c1F)C2 [Example 103]")
"21.6 % of control"
>>> measured_value("O=C(Cc1[nH]c(=S)n2c1[C@@H]1C[C@]1(c1c(F)ccc(Cl)c1F)C2)N[C@@H]1CCOC1 [Example 392]")
"13.2 % of control"

We now examine a further compound.
Reported Plasma (0.1 μM), activity in % of control ( O=C(Cc1[nH]c(=S)n2c1[C@@H]1C[C@]1(c1cc(Cl)ccc1F)C2)NCc1ccccc1 [Example 156] ) = 40.3 % of control

The origin of these recorded values is patent US11434242B2.
